- Method notes: enhancers of STAT3 transcriptional signaling – U3A cells, luciferase, luminescence, MLSCN library, primary screen (AID 871);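 also: 0% = background luminescence of wells with medium and substrate only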
- Measurement context: IL-6 STAT3-luciferase reporter, at 5.6 µM, 100% = signal with IL-6 EC80 alone
Out of some 190,000 compounds screened, about 1,800 (0.95%) were called active.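 The calls were made as follows: active = activation above the screen-wide mean of compound activation plus 3 SD (cut at about 130% in these data); inactive = the rest.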 This excerpt belongs to a sample that is enriched for actives.
// one of label 1 for active, label 0 for inactive, no free text

Solved entries (count: 5):
Compound | Cat
Cc1ccnc(NS(=O)(=O)c2ccc(NC(=O)c3ccc(S(=O)(=O)N4CCOCC4)cc3)cc2)n1 | label 0
O=C1CCCN1CCCNc1ncnc2c1[nH]c1ccccc12 | label 1
CCC(=O)N(Cc1ccccc1)c1ccccn1 | label 0
N#Cc1c(C(F)(F)F)cc(-c2ccc(Cl)cc2)nc1SCC(=O)O | label 1
CCOP(=O)(OCC)C(Nc1cccc(C)c1)c1ccc(F)cc1 (stereo not given) | label 0

Below: the item to evaluate.
Test call, this compound: COCc1ccc(C(=O)N2CCc3c([nH]c4ccccc34)C2c2ccccn2)s1 (stereo not given)
label 0

* * *

- Method notes: enhancers of STAT3 transcriptional signaling – U3A cells, luciferase, luminescence, MLSCN library, primary screen (AID 871);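 also: 0% = background luminescence of wells with medium and substrate only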
- Measurement context: IL-6 STAT3-luciferase reporter, at 5.6 µM, stronger effect = higher value, 100% = signal with IL-6 EC80 alone
In all, about 190,000 compounds went through this assay and about 1,800 (0.95%) were called active. For the sample, actives were picked, then their nearest neighbours and some compounds at random.
Some compounds, each annotated with its measured activation (% of control).
Answer with a number only, understood to be in %.

Compound | activation (% of control) / %
COc1ccc(NS(=O)(=O)c2ccc(O)c(C(=O)OCC(=O)NC3CCCCC3)c2)cc1 | 102
Cc1c(CCO)c(=O)[nH]n1C(=O)c1c(F)cccc1F | 134
OC(COc1cccc(OCC(O)CN2CCCC2)c1)CN1CCCC1 (centres undefined) | 101

Attention now shifts to the item below.
Read off the recorded activation (% of control) for CCOC(=O)c1c(-c2cccc(C)c2)csc1NC(=O)c1c(-c2ccccc2)noc1C
137

* * *

- Method notes: enhancers of STAT3 transcriptional signaling – U3A cells, luciferase, luminescence, MLSCN library, primary screen (AID 871);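 also: 0% = background luminescence of wells with medium and substrate only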
- Measurement context: IL-6 STAT3-luciferase reporter, at 5.6 µM, stronger effect = higher value, 100% = signal with IL-6 EC80 alone
Hit rate of the full screen: of about 190,000 compounds, about 1,800 (0.95%) were called active. Shown is part of a subset that was picked to be rich in actives.
Measure: activation (% of control) (%)
Answer with a number only, understood to be in %.

Molecule | Unit text | activation (% of control)
O=C(NCC1CCCCC1)c1cc(S(=O)(=O)N2CCCCC2)ccc1N1CCOCC1 | % | 104

Read off the recorded activation (% of control) for COc1cccc(NC(=S)C(C#N)=C2N(C)c3ccccc3N2C)c1
145

Read off the recorded activation (% of control) for CCOc1ccc(C2c3[nH]c4ccccc4c3CCN2Cc2cn(CC)nc2C)cc1 (configuration not stated)
140

Read off the recorded activation (% of control) for O=C(CNS(=O)(=O)c1ccccc1)NCC(=O)OCc1ccccc1F
108

Read off the recorded activation (% of control) for CN(C)S(=O)(=O)c1cc(NC(=O)CN2C(=O)NC3(CCCc4ccccc43)C2=O)ccc1Cl (configuration not stated)
105

Read off the recorded activation (% of control) for COc1ccccc1C1C2=C(COC2=O)Nc2cc3c(cc21)OCO3 (configuration not stated)
144

Read off the recorded activation (% of control) for CCC(C)C(=O)Nc1cc([N+](=O)[O-])ccc1Cl (configuration not stated)
103

Read off the recorded activation (% of control) for COc1cccc(NC(=O)C(C)Oc2ccccc2)c1 (configuration not stated)
97.5

Read off the recorded activation (% of control) for CC(=O)c1c(C)[nH]c(C(=O)Nc2cc(S(=O)(=O)N(C)C)ccc2C)c1C
90.9

Read off the recorded activation (% of control) for CCCOc1ccccc1C1CC(=O)Nc2cc3c(cc21)OCO3 (configuration not stated)
66.4

Read off the recorded activation (% of control) for CC(C)C(=O)Nc1cccc(NC(=O)c2ccc([N+](=O)[O-])cc2Cl)c1
106

Read off the recorded activation (% of control) for Nc1ccc(S(=O)(=O)Nc2nccc(/C=C/c3ccc(Br)s3)n2)cc1
92.4

* * *

- Method notes: enhancers of STAT3 transcriptional signaling – U3A cells, luciferase, luminescence, MLSCN library, primary screen (AID 871);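 also: 0% = background luminescence of wells with medium and substrate only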
- Measurement context: IL-6 STAT3-luciferase reporter, at 5.6 µM, stronger effect = higher value, 100% = signal with IL-6 EC80 alone
Screen size: about 190,000 compounds; about 1,800 (0.95%) were called active. The sample as a whole holds a higher share of actives than the screen did.
Measure: activation (% of control) (%)
Answer with a number only, understood to be in %.

Worked cases, answers included:
Compound | Reported result
O=C(CSc1ccccc1F)NC1CCS(=O)(=O)C1 (stereo unspecified) | 95.7
Cc1cc(/C=N/NC(=O)c2cccnc2)c(C)n1CC(C)C | 118
Fc1ccc2nc(-c3ccccc3)nc(SCc3nnc(-c4ccccc4)o3)c2c1 | 141
CC(C)OCCCNC(=S)N1CCC(C(=O)c2ccc3c(c2)OCCO3)CC1 | 102
CC(C)(C)c1ccc(NC(=O)COC(=O)CCc2nc3ccccc3c(=O)[nH]2)cc1 | 95.4
Cc1nccn1CCCNC(=O)CC1C(=O)NCCN1Cc1ccc(Cl)c(F)c1 (stereo unspecified) | 100

Read off the recorded activation (% of control) for COc1cc(NS(=O)(=O)c2ccc(N/C=C(\C=O)c3nc4cc(Cl)ccc4o3)cc2)nc(OC)n1
159

Read off the recorded activation (% of control) for CN1CCN(CCCCOc2ccccc2-c2ccccc2)CC1
96.6

* * *

- Method notes: enhancers of STAT3 transcriptional signaling – U3A cells, luciferase, luminescence, MLSCN library, primary screen (AID 871);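 also: 0% = background luminescence of wells with medium and substrate only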
- Measurement context: IL-6 STAT3-luciferase reporter, at 5.6 µM, stronger effect = higher value, 100% = signal with IL-6 EC80 alone
The campaign covered roughly 190,000 compounds. About 1,800 (0.95%) were called active. The sample holds actives, similar compounds and a random draw of the others, so the mix is not that of the screen.
Measure: activation (% of control) (%)
Answer with a number only, understood to be in %.

Worked cases, answers included:
Compound | activation (% of control) [%]
O=C(CC1SCCNC1=O)Nc1ccc(Cl)cc1 (configuration not stated) | 105
Cc1nnc(SCc2cccc(Cl)c2)n(N)c1=O | 88.9
O=C(Cn1nnc2ccccc2c1=O)NCc1ccc(Cl)cc1 | 101
c1ccc(-c2cn3cccnc3n2)cc1 | 91.9
O=C(Nc1ccncc1)c1cc(-c2ccccn2)nc2ccc(Br)cc12 | 111
C=CCn1c(-c2sc(-c3ccccc3)nc2C)n[nH]c1=S | 94.6
Cc1cccc(/C=N/NC(=O)CNc2cccc3ccccc23)n1 | 114
COc1ccc(C(=O)ON=C2c3ccccc3-c3ccccc32)cc1OC | 107

Read off the recorded activation (% of control) for O=C(CCn1c(=S)[nH]c2ccccc2c1=O)NCCCN1CCCC1=O
98.6

Read off the recorded activation (% of control) for C/C(=N\NC(=O)CNc1cccc2ccccc12)c1ccc(Br)s1
137

Read off the recorded activation (% of control) for N#CCSc1nn(-c2ccc(F)cc2)c(=S)s1
103

Read off the recorded activation (% of control) for CCCCCC1CCC(c2nnc(SCC(C)=O)o2)CC1 (configuration not stated)
101

Read off the recorded activation (% of control) for Cn1cccc1C(=O)Nc1nccs1
140

* * *

Some compounds, each annotated with its measured activation (% of control).
- Method notes: enhancers of STAT3 transcriptional signaling – U3A cells, luciferase, luminescence, MLSCN library, primary screen (AID 871);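 also: 0% = background luminescence of wells with medium and substrate only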
- Measurement context: IL-6 STAT3-luciferase reporter, at 5.6 µM, stronger effect = higher value, 100% = signal with IL-6 EC80 alone
Hit rate of the full screen: of about 190,000 compounds, about 1,800 (0.95%) were called active. This is one part of a sample in which actives are shown more often than they occur.
Answer with a number only, understood to be in %.

Compound | Unit text | activation (% of control)
CCOC(=O)CN(C)Cc1c[nH]c2ccccc12 | % | 137
Cn1nc(-c2ccc(Cl)cc2)c2cc(C(=O)NCc3ccco3)sc21 | % | 158
O=C(/C=C/c1ccc(F)cc1)NCCNC(=O)/C=C/c1ccc(F)cc1 | % | 95
CCOC(=O)N1CCN(C(=O)c2cc3c(-c4ccc(Cl)cc4)nn(C)c3s2)CC1 | % | 107
Cc1cc(=O)n2[nH]c(-c3sccc3-n3c(C)ccc3C)cc2n1 | % | 118

Read off the recorded activation (% of control) for Cc1ccc(C2C(C#N)C(C#N)N3CCCN23)cc1 (centres undefined)
141
